- assay-name: Oral bioavailability in rat
- Format: ADME, organism-based
- test-conditions: in vivo

structure	unit-text	bioavailability
CCOC(=O)[C@H](C)NP(=O)(N[C@@H](C)C(=O)OCC)c1ccc(-c2nc(N)sc2CC(C)C)o1	%	22

----------
- Test system: Liver
- assay-name: Metabolic stability in rat liver S9 fraction assessed as esterase conversion rate
- Type: ADME, subcellular
compounds and their reported Stability
quantity-kind: Stability

compound	quantity-kind	reported-value
CC(C)Cc1sc(N)nc1-c1ccc(P(=O)(OCOC(=O)C(C)(C)C)OCOC(=O)C(C)(C)C)o1	Stability	> 300 nmol/min/mg
CCOC(=O)[C@H](C)NP(=O)(Oc1ccccc1)c1ccc(-c2nc(N)sc2CC(C)C)o1 (stereo partly specified)	Stability	55 nmol/min/mg
CCOC(=O)CNP(=O)(NCC(=O)OCC)c1ccc(-c2nc(N)sc2CC(C)C)o1	Stability	43 nmol/min/mg
CC(=O)Oc1ccc(COP(=O)(OCc2ccc(OC(C)=O)cc2)c2ccc(-c3nc(N)sc3CC(C)C)o2)cc1	Stability	> 300 nmol/min/mg
CC(=O)SCCOP(=O)(OCCSC(C)=O)c1ccc(-c2nc(N)sc2CC(C)C)o1	Stability	> 300 nmol/min/mg
CCOC(=O)[C@H](C)NP(=O)(N[C@@H](C)C(=O)OCC)c1ccc(-c2nc(N)sc2CC(C)C)o1	Stability	11 nmol/min/mg

----------
- assay-name: Chemical stability assessed as half life of hydrolysis at neutral pH
- Assay type: physicochemical

structure	half-life
CC(C)(C)C(=O)OCOP(=O)(OCOC(=O)C(C)(C)C)OC[C@H]1O[C@@H](n2cc(F)c(=O)[nH]c2=O)C[C@@H]1O	> 40 h

----------
- assay-name: Chemical stability assessed as half life of hydrolysis in carbonate buffer at pH 8.5
- Type: physicochemical
quantity-kind: half-life (min)

structure	reported-value
O=C(O)CCNC(=O)[C@H](Cc1ccc(-c2ccccc2)cc1)NCP(=O)(Oc1ccccc1)Oc1ccccc1	30

----------
- assay-name: Aqueous stability assessed as time to reach 90% of starting dose at pH 7
- test-conditions: buffer
quantity-kind: Stability (h)

compound	unit-text	modifier-sign	reported-value
CCOC(=O)[C@H](C)NP(=O)(Oc1ccccc1)c1ccc(-c2nc(N)sc2CC(C)C)o1 (some centres undefined)	h	=	14
CCOC(=O)CNP(=O)(NCC(=O)OCC)c1ccc(-c2nc(N)sc2CC(C)C)o1	h	=	36
CC(C)Cc1sc(N)nc1-c1ccc(P(=O)(OCOC(=O)C(C)(C)C)OCOC(=O)C(C)(C)C)o1	h	<	4
CC(=O)SCCOP(=O)(OCCSC(C)=O)c1ccc(-c2nc(N)sc2CC(C)C)o1	h	=	8

----------
- assay-name: Stability in human serum assessed as half life of hydrolysis
- Type: ADME, cell-free

structure	half-life (h)
CC(C)(C)C(=O)SCCOP(=O)(COCCn1cnc2c(N)ncnc21)OCCSC(=O)C(C)(C)C	4

----------
- assay-name: Stability in human gastric juice assessed as half life of hydrolysis
- Format: ADME, tissue-based

structure	half-life
CC(C)(C)C(=O)SCCOP(=O)(COCCn1cnc2c(N)ncnc21)OCCSC(=O)C(C)(C)C	< 5 min
